- assay info: qHTS assay to identify small molecule antagonists of the androgen receptor (AR) signaling pathway using the MDA cell line - cell viability counter screen (AID 743041; also: nearly all actives have a fitted effect of over 45% in size)
- assay setup: MDA-kb2 viability, CellTiter-Fluor, 16 h, cells co-treated with R1881 androgen agonist; series mostly up to 70.3 µM
Inconclusive results are not listed. Active and inactive are the calls of the source. Calls follow the shape of the dose curve; as a rule, active = well fitted cell-killing curve with a large enough effect in the repeat runs; inconclusive = weak or mixed curves, or effect the other way; inactive = flat fitted curve, though single readings scatter.
# valid calls are active, inactive; nothing else

Problem: Called result for Cc1ccc(C(=O)O)cc1
Solution: inactive

Problem: Called result for CCN(CCN)c1cccc(C)c1
Solution: inactive

Problem: Called result for O=c1[nH]c2ccccc2n1CCCN1CCN(C(c2ccccc2)c2ccccc2)CC1
Solution: inactive

Problem: Called result for CC(C)(C)c1ccc(C(O)CCCN2CCC(C(O)(c3ccccc3)c3ccccc3)CC2)cc1 (configuration not stated)
Solution: inactive

Entry source: PubChem BioAssay (Tox21)
